Every entry's value here was drawn from ChEMBL document CHEMBL1275303.

- Test system: Staphylococcus aureus
- measurement_notes: Antimicrobial activity against Staphylococcus aureus at 50 ug/mL after 24 hrs by well plate method
- Format: functional
- condition_set: read-out: IZ
quantity: zone of inhibition at 50 µg/mL (mm)
Field format: number, assumed mm, no unit text.

Prompt: So what does the record say about zone of inhibition at 50 µg/mL for O=c1c2ccccc2c(Cc2nnc(-c3ccc(F)cc3)o2)nn1CCN1CCOCC1 ?
Response: 0

Prompt: Consider next the molecule O=c1c2ccccc2c(Cc2nnc(C(F)(F)F)o2)nn1Cc1cnc(Cl)s1 in the same way.
Response: 4

Prompt: Consider next the molecule O=c1c2ccccc2c(Cc2nnc(C3CC3)o2)nn1CCN1CCOCC1 in the same way.
Response: 0

Prompt: Consider next the molecule O=c1c2ccccc2c(Cc2nnc(C(F)(F)F)o2)nn1Cc1ccc(Cl)nc1 in the same way.
Response: 3.5

Prompt: Consider next the molecule O=c1c2ccccc2c(Cc2nnc(C3CC3)o2)nn1Cc1ccc(Cl)nc1 in the same way.
Response: 1

Prompt: Consider next the molecule Cc1nnc(Cc2nn(CCN3CCOCC3)c(=O)c3ccccc23)o1 in the same way.
Response: 0

Prompt: Consider next the molecule Cc1nnc(Cc2nn(Cc3ccc(Cl)nc3)c(=O)c3ccccc23)o1 in the same way.
Response: 0

Prompt: Consider next the molecule O=c1c2ccccc2c(Cc2nnc(-c3ccsc3)o2)nn1Cc1cnc(Cl)s1 in the same way.
Response: 7

Prompt: Consider next the molecule O=c1c2ccccc2c(Cc2nnc(-c3ccc(Cl)cc3)o2)nn1Cc1cnc(Cl)s1 in the same way.
Response: 7

Prompt: Consider next the molecule O=c1c2ccccc2c(Cc2nnc(C(F)(F)F)o2)nn1CCN1CCOCC1 in the same way.
Response: 0

Prompt: Consider next the molecule O=c1c2ccccc2c(Cc2nnc(-c3ccc(Cl)nc3)o2)nn1Cc1ccc(Cl)nc1 in the same way.
Response: 7.5

Prompt: Consider next the molecule O=c1c2ccccc2c(Cc2nnc(-c3ccc(Cl)nc3)o2)nn1Cc1cnc(Cl)s1 in the same way.
Response: 4

Prompt: Consider next the molecule O=c1c2ccccc2c(Cc2nnc(-c3ccc(Cl)cc3)o2)nn1Cc1ccc(Cl)nc1 in the same way.
Response: 1

Prompt: Consider next the molecule Cc1ccccc1-c1nnc(Cc2nn(CCN3CCOCC3)c(=O)c3ccccc23)o1 in the same way.
Response: 1.5

Prompt: Consider next the molecule CC1(C)S[C@@H]2[C@H](NC(=O)[C@H](N)c3ccc(O)cc3)C(=O)N2[C@H]1C(=O)O in the same way.
Response: 12.5

Prompt: Consider next the molecule Cc1nnc(Cc2nn(Cc3cnc(Cl)s3)c(=O)c3ccccc23)o1 in the same way.
Response: 0

Prompt: Consider next the molecule O=c1c2ccccc2c(Cc2nnc(-c3ccc(F)cc3)o2)nn1Cc1ccc(Cl)nc1 in the same way.
Response: 4

Prompt: Consider next the molecule O=c1c2ccccc2c(Cc2nnc(C3CC3)o2)nn1Cc1cnc(Cl)s1 in the same way.
Response: 2

Prompt: Consider next the molecule O=c1c2ccccc2c(Cc2nnc(-c3ccc(Cl)cc3)o2)nn1CCN1CCOCC1 in the same way.
Response: 5

Prompt: Consider next the molecule Cc1ccccc1-c1nnc(Cc2nn(Cc3ccc(Cl)nc3)c(=O)c3ccccc23)o1 in the same way.
Response: 4.5

Prompt: Consider next the molecule O=c1c2ccccc2c(Cc2nnc(-c3ccsc3)o2)nn1Cc1ccc(Cl)nc1 in the same way.
Response: 7

Prompt: Consider next the molecule O=c1c2ccccc2c(Cc2nnc(-c3ccc(F)cc3)o2)nn1Cc1cnc(Cl)s1 in the same way.
Response: 5

Prompt: Consider next the molecule O=c1c2ccccc2c(Cc2nnc(-c3ccc(Cl)nc3)o2)nn1CCN1CCOCC1 in the same way.
Response: 3.5

Prompt: Consider next the molecule O=c1c2ccccc2c(Cc2nnc(-c3ccsc3)o2)nn1CCN1CCOCC1 in the same way.
Response: 3.5

Prompt: Consider next the molecule Cc1ccccc1-c1nnc(Cc2nn(Cc3cnc(Cl)s3)c(=O)c3ccccc23)o1 in the same way.
Response: 0

###

Provide the reported zone of inhibition at 100 µg/mL of each item.
- System: Nannizzia gypsea
- measurement_notes: Antimicrobial activity against Microsporum gypseum at 100 ug/mL after 72 hrs by well plate method
- Type: functional
- condition_set: read-out: IZ
Field format: number, assumed mm, no unit text.

Prompt: Checklist item: zone of inhibition at 100 µg/mL tested on Nannizzia gypsea, entry Cc1ccccc1-c1nnc(Cc2nn(Cc3ccc(Cl)nc3)c(=O)c3ccccc23)o1 , value?
Response: 3

Prompt: Consider next the molecule O=c1c2ccccc2c(Cc2nnc(C3CC3)o2)nn1Cc1ccc(Cl)nc1 in the same way.
Response: 7.5

Prompt: Consider next the molecule Cc1nnc(Cc2nn(Cc3ccc(Cl)nc3)c(=O)c3ccccc23)o1 in the same way.
Response: 2

Prompt: Consider next the molecule Cc1ccccc1-c1nnc(Cc2nn(Cc3cnc(Cl)s3)c(=O)c3ccccc23)o1 in the same way.
Response: 3

Prompt: Consider next the molecule O=c1c2ccccc2c(Cc2nnc(-c3ccc(Cl)nc3)o2)nn1CCN1CCOCC1 in the same way.
Response: 9.5

###

- Test system: Nannizzia gypsea
- measurement_notes: Antimicrobial activity against Microsporum gypseum at 100 ug/mL after 72 hrs by well plate method
- Type: functional
- condition_set: read-out: IZ
quantity: zone of inhibition at 100 µg/mL (mm)
Field format: number, assumed mm, no unit text.

Prompt: So what does the record say about zone of inhibition at 100 µg/mL for O=c1c2ccccc2c(Cc2nnc(-c3ccc(Cl)nc3)o2)nn1Cc1ccc(Cl)nc1 ?
Response: 7

Prompt: Consider next the compound O=c1c2ccccc2c(Cc2nnc(C3CC3)o2)nn1Cc1cnc(Cl)s1 in the same way.
Response: 7

Prompt: Consider next the compound O=c1c2ccccc2c(Cc2nnc(C(F)(F)F)o2)nn1Cc1ccc(Cl)nc1 in the same way.
Response: 5

Prompt: Consider next the compound O=c1c2ccccc2c(Cc2nnc(-c3ccc(F)cc3)o2)nn1CCN1CCOCC1 in the same way.
Response: 7.5

Prompt: Consider next the compound Cc1nnc(Cc2nn(Cc3cnc(Cl)s3)c(=O)c3ccccc23)o1 in the same way.
Response: 3.5

Prompt: Consider next the compound Cc1ncc([N+](=O)[O-])n1CCO in the same way.
Response: 17

Prompt: Consider next the compound O=c1c2ccccc2c(Cc2nnc(-c3ccsc3)o2)nn1Cc1ccc(Cl)nc1 in the same way.
Response: 11

Prompt: Consider next the compound O=c1c2ccccc2c(Cc2nnc(-c3ccsc3)o2)nn1Cc1cnc(Cl)s1 in the same way.
Response: 9.5

Prompt: Consider next the compound O=c1c2ccccc2c(Cc2nnc(-c3ccsc3)o2)nn1CCN1CCOCC1 in the same way.
Response: 10.5

Prompt: Consider next the compound O=c1c2ccccc2c(Cc2nnc(-c3ccc(Cl)nc3)o2)nn1Cc1cnc(Cl)s1 in the same way.
Response: 7.5

###

- Test system: Candida albicans
- measurement_notes: Antimicrobial activity against Candida albicans at 50 ug/mL after 72 hrs by well plate method
- Assay type: functional
- condition_set: read-out: IZ
I'd appreciate it if you could label each record using zone of inhibition at 50 µg/mL and these ranges: bin 0 (below 2 mm), bin 1 (2 mm to below 4 mm), bin 2 (4 mm or more)

Prompt: Note: place this molecule into its band. Item: Cc1ccccc1-c1nnc(Cc2nn(CCN3CCOCC3)c(=O)c3ccccc23)o1
Response: bin 0

Prompt: Consider next the molecule O=c1c2ccccc2c(Cc2nnc(C(F)(F)F)o2)nn1Cc1cnc(Cl)s1 in the same way.
Response: bin 0

Prompt: Consider next the molecule O=c1c2ccccc2c(Cc2nnc(-c3ccc(Cl)cc3)o2)nn1Cc1cnc(Cl)s1 in the same way.
Response: bin 1

Prompt: Consider next the molecule O=c1c2ccccc2c(Cc2nnc(-c3ccsc3)o2)nn1Cc1ccc(Cl)nc1 in the same way.
Response: bin 2

Prompt: Consider next the molecule O=c1c2ccccc2c(Cc2nnc(-c3ccc(Cl)nc3)o2)nn1Cc1ccc(Cl)nc1 in the same way.
Response: bin 2

Prompt: Consider next the molecule O=c1c2ccccc2c(Cc2nnc(-c3ccsc3)o2)nn1Cc1cnc(Cl)s1 in the same way.
Response: bin 2

Prompt: Consider next the molecule O=c1c2ccccc2c(Cc2nnc(C3CC3)o2)nn1Cc1cnc(Cl)s1 in the same way.
Response: bin 1

Prompt: Consider next the molecule O=c1c2ccccc2c(Cc2nnc(C3CC3)o2)nn1CCN1CCOCC1 in the same way.
Response: bin 1

Prompt: Consider next the molecule Cc1ccccc1-c1nnc(Cc2nn(Cc3cnc(Cl)s3)c(=O)c3ccccc23)o1 in the same way.
Response: bin 0

Prompt: Consider next the molecule O=c1c2ccccc2c(Cc2nnc(-c3ccc(F)cc3)o2)nn1CCN1CCOCC1 in the same way.
Response: bin 1

Prompt: Consider next the molecule O=c1c2ccccc2c(Cc2nnc(C(F)(F)F)o2)nn1CCN1CCOCC1 in the same way.
Response: bin 0

Prompt: Consider next the molecule O=c1c2ccccc2c(Cc2nnc(-c3ccc(Cl)cc3)o2)nn1CCN1CCOCC1 in the same way.
Response: bin 0

Prompt: Consider next the molecule O=c1c2ccccc2c(Cc2nnc(-c3ccsc3)o2)nn1CCN1CCOCC1 in the same way.
Response: bin 2

Prompt: Consider next the molecule O=c1c2ccccc2c(Cc2nnc(-c3ccc(Cl)nc3)o2)nn1CCN1CCOCC1 in the same way.
Response: bin 2

Prompt: Consider next the molecule Cc1ncc([N+](=O)[O-])n1CCO [METRONIDAZOLE] in the same way.
Response: bin 2

Prompt: Consider next the molecule O=c1c2ccccc2c(Cc2nnc(C(F)(F)F)o2)nn1Cc1ccc(Cl)nc1 in the same way.
Response: bin 0

Prompt: Consider next the molecule O=c1c2ccccc2c(Cc2nnc(-c3ccc(Cl)nc3)o2)nn1Cc1cnc(Cl)s1 in the same way.
Response: bin 2

Prompt: Consider next the molecule O=c1c2ccccc2c(Cc2nnc(C3CC3)o2)nn1Cc1ccc(Cl)nc1 in the same way.
Response: bin 2

Prompt: Consider next the molecule O=c1c2ccccc2c(Cc2nnc(-c3ccc(F)cc3)o2)nn1Cc1cnc(Cl)s1 in the same way.
Response: bin 1

Prompt: Consider next the molecule Cc1nnc(Cc2nn(Cc3ccc(Cl)nc3)c(=O)c3ccccc23)o1 in the same way.
Response: bin 0
